# Target Desc: Mitogen-activated protein kinase kinase kinase kinase 2 (Homo sapiens, UniProt Q12851)
# Sequence (Q12851 whole entry): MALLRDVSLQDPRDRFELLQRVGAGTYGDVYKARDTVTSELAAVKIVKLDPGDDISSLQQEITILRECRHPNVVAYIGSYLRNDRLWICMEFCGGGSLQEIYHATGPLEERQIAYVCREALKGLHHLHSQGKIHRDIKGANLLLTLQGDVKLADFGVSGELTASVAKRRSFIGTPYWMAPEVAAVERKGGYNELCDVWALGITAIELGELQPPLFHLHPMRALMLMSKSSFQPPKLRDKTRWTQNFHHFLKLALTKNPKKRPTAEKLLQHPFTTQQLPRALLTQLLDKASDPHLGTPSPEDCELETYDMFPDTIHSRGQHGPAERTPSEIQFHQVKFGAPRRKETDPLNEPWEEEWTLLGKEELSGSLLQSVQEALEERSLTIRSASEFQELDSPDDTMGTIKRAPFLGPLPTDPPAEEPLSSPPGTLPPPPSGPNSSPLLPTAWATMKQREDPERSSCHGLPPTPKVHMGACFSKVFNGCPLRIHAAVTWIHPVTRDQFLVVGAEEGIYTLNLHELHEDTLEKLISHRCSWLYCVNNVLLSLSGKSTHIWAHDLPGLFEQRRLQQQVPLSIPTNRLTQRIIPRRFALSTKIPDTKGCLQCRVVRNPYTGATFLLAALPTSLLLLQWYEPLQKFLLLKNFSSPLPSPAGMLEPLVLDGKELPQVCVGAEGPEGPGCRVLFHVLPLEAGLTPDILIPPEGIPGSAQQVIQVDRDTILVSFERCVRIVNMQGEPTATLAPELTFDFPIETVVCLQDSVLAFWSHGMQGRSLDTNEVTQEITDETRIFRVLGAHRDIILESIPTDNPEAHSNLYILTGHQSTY
# Procedure Details: Inhibition of GCK (unknown origin) by [33P]-ATP filter binding kinase assay
Endpoint Name: pIC50
Just the number, please; pIC50 means minus log10 of the concentration in mol/L.

Example results:
• COc1cc(Br)cc2[nH]cc(-c3cnc(-c4ccc[nH]4)o3)c12 = 5.92
• COc1cc(Br)cc2[nH]c(I)c(-c3cnc(-c4ccc[nH]4)o3)c12 = 4.40

Qu. Lab note: need pIC50 with Mitogen-activated protein kinase kinase kinase kinase 2 (Homo sapiens, UniProt Q12851) for entry COc1cc2c(-c3cnc(-c4ccc[nH]4)o3)c[nH]c2cc1Br , please look it up.
Ans. 6.22
